Values compiled from the supplement of paper PMC7877785.

Test: self-splicing fitness, log relative to wild type (ln ratio); higher = more splicing; Tetrahymena group I intron in knt gene, E. coli kanamycin selection, DiMSum; sequences stand for … in CUCUCU…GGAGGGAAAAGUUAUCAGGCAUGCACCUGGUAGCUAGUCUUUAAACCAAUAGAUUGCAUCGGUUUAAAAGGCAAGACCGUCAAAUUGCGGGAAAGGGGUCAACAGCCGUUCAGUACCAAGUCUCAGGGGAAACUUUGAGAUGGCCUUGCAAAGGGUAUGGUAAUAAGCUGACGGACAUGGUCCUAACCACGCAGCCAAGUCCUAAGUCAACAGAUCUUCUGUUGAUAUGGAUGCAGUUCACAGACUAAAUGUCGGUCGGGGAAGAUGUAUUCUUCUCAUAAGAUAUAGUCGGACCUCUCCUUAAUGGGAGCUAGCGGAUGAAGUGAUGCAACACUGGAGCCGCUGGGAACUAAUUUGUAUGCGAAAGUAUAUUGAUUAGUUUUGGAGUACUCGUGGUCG;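 also: selection with 25 µg/mL kanamycin versus none on LB agar overnight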
Settings: 37 °C
Listed sequences paired with reported self-splicing fitness (ln)

Below: 4 sequences and their reported self-splicing fitness (ln).
{"CONSTRUCT_SEQUENCE": "GCGAAGCAAUAUUACGACAG", "self-splicing fitness (ln)": -1.97}
{"CONSTRUCT_SEQUENCE": "GUCUAGCAAUAUUACGAGUA", "self-splicing fitness (ln)": -1.39}
{"CONSTRUCT_SEQUENCE": "UGACAGCAAUAUUACGUGGU", "self-splicing fitness (ln)": -2.22}
{"CONSTRUCT_SEQUENCE": "AUCUAGCAAUAUUACGAGCU", "self-splicing fitness (ln)": -0.565}

Turning now to a further sequence:
Lookup: # lookup: self-splicing fitness (ln) of `GCGCAGCAAUAUUACGCAUA`
Found: -0.285

----------
# maps each entry to its self-splicing fitness (ln)
Assay: self-splicing fitness, log relative to wild type (ln ratio); higher = more splicing; Tetrahymena group I intron in knt gene, E. coli kanamycin selection, DiMSum; sequences stand for … in CUCUCU…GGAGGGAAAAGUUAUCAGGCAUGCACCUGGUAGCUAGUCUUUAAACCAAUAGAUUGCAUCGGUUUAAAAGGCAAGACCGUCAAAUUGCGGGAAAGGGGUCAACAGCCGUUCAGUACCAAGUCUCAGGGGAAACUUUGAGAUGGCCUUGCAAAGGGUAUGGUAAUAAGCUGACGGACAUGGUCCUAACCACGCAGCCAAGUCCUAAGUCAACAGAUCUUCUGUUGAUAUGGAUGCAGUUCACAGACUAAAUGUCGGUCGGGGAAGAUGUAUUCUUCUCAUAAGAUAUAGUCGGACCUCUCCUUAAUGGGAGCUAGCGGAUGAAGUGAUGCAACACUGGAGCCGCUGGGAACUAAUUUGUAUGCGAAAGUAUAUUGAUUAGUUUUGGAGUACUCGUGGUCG
Conditions: 37 °C
Number, no unit, nothing else.

Some sequences with recorded self-splicing fitness (ln):
{"CONSTRUCT_SEQUENCE": "AGCGAGCAAUAUUACGUUGG", "self-splicing fitness (ln)": -3.5}
{"CONSTRUCT_SEQUENCE": "GACCAGCAAUAUUACGCUCU", "self-splicing fitness (ln)": 0.0283}
{"CONSTRUCT_SEQUENCE": "UUGCAGCAAUAUUACGCAUC", "self-splicing fitness (ln)": -3.18}
{"CONSTRUCT_SEQUENCE": "AUAGAGCAAUAUUACGCGGA", "self-splicing fitness (ln)": -1.48}

// next item, self-splicing fitness (ln) requested
Lookup: Quick one: self-splicing fitness (ln) of `GUUAAGCAAUAUUACGCUGU` ?
Found: -1.78

----------
Experiment: self-splicing fitness, log relative to wild type (ln ratio); higher = more splicing; Tetrahymena group I intron in knt gene, E. coli kanamycin selection, DiMSum; sequences stand for … in CUCUCU…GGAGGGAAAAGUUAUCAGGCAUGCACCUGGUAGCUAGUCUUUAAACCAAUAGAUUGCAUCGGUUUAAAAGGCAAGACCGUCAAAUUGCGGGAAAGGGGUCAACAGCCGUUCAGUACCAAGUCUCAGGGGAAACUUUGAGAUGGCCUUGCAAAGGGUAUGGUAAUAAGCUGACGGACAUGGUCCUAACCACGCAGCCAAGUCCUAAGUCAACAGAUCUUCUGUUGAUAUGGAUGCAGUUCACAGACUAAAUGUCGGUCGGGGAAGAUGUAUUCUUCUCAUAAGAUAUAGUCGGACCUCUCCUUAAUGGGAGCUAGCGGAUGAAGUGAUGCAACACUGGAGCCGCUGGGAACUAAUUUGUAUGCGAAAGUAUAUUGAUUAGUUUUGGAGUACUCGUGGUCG
Settings: 30 °C
Consider the reported self-splicing fitness (ln) of an entry and match it to a band in low-valued: < -3; mid-valued: ≥ -3 and < -2; high-valued: ≥ -2

Use the examples below as a reference point.
{"CONSTRUCT_SEQUENCE": "AGUGAGCAAUAUUACGUACU", "GROUP": "high-valued"}
{"CONSTRUCT_SEQUENCE": "UUGCAGCAAUAUUACGGCGU", "GROUP": "high-valued"}
{"CONSTRUCT_SEQUENCE": "UGAGAGCAAUAUUACGAUAG", "GROUP": "low-valued"}
{"CONSTRUCT_SEQUENCE": "UACGAGCAAUAUUACGCUUC", "GROUP": "mid-valued"}
{"CONSTRUCT_SEQUENCE": "CCUAAGCAAUAUUACGUAUG", "GROUP": "high-valued"}
{"CONSTRUCT_SEQUENCE": "ACGAAGCAAUAUUACGCAAA", "GROUP": "mid-valued"}
{"CONSTRUCT_SEQUENCE": "UCACAGCAAUAUUACGAAUU", "GROUP": "low-valued"}
{"CONSTRUCT_SEQUENCE": "AAACAGCAAUAUUACGGUUC", "GROUP": "mid-valued"}

Next, consider the following sequence.
Lookup: Please classify: `CAUCAGCAAUAUUACGAAGG`
Found: high-valued

----------
Assay: self-splicing fitness, log relative to wild type (ln ratio); higher = more splicing; Tetrahymena group I intron in knt gene, E. coli kanamycin selection, DiMSum; sequences stand for … in CUCUCU…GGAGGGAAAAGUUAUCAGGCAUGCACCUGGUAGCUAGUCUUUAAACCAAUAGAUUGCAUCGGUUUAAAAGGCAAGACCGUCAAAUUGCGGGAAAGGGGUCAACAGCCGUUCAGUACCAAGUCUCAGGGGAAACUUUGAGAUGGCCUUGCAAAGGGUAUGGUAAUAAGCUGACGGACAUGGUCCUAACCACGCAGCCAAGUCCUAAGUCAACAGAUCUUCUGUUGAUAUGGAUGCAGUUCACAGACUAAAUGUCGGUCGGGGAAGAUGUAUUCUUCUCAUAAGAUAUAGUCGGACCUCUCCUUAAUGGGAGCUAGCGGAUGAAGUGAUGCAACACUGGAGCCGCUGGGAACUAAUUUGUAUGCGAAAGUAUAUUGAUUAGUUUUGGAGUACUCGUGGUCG
Settings: 30 °C
PROPERTY_LABEL: self-splicing fitness (ln)
# answer = number (no unit)

Use these answered entries as a reference point.
{"CONSTRUCT_SEQUENCE": "AACCAGCAAUAUUACGAGAU", "self-splicing fitness (ln)": -1.96}
{"CONSTRUCT_SEQUENCE": "UUCUAGCAAUAUUACGUCUU", "self-splicing fitness (ln)": -3.03}

Lookup: So what does the record say about self-splicing fitness (ln) for `AUUGAGCAAUAUUACGCGUU` ?
Found: -3.02

Lookup: Bench note: what self-splicing fitness (ln) did `CUAUAGCAAUAUUACGAGGC` show?
Found: -3.06

----------
Assay: self-splicing fitness, log relative to wild type (ln ratio); higher = more splicing; Tetrahymena group I intron in knt gene, E. coli kanamycin selection, DiMSum; sequences stand for … in CUCUCU…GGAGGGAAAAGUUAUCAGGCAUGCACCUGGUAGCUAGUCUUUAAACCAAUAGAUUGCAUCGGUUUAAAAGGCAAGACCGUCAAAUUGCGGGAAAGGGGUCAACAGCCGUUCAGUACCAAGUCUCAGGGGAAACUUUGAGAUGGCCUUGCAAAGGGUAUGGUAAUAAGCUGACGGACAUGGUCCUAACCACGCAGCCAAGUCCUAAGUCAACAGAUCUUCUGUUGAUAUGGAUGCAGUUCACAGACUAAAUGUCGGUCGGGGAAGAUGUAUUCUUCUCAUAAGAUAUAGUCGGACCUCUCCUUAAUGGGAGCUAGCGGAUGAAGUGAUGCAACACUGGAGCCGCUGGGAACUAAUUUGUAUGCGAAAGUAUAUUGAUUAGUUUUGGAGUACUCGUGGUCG
Details: 37 °C
Quick rule for you: self-splicing fitness (ln) at -0.8 or higher means yes, lower means no.

Please review the following examples before continuing.
{"CONSTRUCT_SEQUENCE": "GCGAAGCAAUAUUACGUCAC", "GROUP": "no"}
{"CONSTRUCT_SEQUENCE": "CACGAGCAAUAUUACGUACA", "GROUP": "no"}
{"CONSTRUCT_SEQUENCE": "GGUUAGCAAUAUUACGGUUC", "GROUP": "yes"}
{"CONSTRUCT_SEQUENCE": "GAUGAGCAAUAUUACGCUCA", "GROUP": "no"}
{"CONSTRUCT_SEQUENCE": "CAUCAGCAAUAUUACGAAGG", "GROUP": "yes"}

Lookup: Reported self-splicing fitness (ln) reaches at least -0.8 for `ACGGAGCAAUAUUACGACUG` ?
Found: yes

Lookup: Is reported self-splicing fitness (ln) greater than or equal to -0.8 here: `AAGGAGCAAUAUUACGCUGG`
Found: no

Lookup: Check this sequence for self-splicing fitness (ln) at or above -0.8: `AAAGAGCAAUAUUACGGCUC`
Found: no
